target: N-type Ca^2+ Channel (Homo sapiens); construct: host or cells: IMR-32 cells differentiated with dibutyryl cAMP and bromodeoxyuridine; assay: Measurement of N-type Ca2+ channel blocking potencies in IMR-32 cells using the fluorescent Ca2+ indicator Indo-1; type: cell-based; conditions: IMR-32 cells, K+ depolarization, 5 μM nitrendipine to block L-type channels; read-out: IMR 32 IC50
Sequence (Q00975 whole entry): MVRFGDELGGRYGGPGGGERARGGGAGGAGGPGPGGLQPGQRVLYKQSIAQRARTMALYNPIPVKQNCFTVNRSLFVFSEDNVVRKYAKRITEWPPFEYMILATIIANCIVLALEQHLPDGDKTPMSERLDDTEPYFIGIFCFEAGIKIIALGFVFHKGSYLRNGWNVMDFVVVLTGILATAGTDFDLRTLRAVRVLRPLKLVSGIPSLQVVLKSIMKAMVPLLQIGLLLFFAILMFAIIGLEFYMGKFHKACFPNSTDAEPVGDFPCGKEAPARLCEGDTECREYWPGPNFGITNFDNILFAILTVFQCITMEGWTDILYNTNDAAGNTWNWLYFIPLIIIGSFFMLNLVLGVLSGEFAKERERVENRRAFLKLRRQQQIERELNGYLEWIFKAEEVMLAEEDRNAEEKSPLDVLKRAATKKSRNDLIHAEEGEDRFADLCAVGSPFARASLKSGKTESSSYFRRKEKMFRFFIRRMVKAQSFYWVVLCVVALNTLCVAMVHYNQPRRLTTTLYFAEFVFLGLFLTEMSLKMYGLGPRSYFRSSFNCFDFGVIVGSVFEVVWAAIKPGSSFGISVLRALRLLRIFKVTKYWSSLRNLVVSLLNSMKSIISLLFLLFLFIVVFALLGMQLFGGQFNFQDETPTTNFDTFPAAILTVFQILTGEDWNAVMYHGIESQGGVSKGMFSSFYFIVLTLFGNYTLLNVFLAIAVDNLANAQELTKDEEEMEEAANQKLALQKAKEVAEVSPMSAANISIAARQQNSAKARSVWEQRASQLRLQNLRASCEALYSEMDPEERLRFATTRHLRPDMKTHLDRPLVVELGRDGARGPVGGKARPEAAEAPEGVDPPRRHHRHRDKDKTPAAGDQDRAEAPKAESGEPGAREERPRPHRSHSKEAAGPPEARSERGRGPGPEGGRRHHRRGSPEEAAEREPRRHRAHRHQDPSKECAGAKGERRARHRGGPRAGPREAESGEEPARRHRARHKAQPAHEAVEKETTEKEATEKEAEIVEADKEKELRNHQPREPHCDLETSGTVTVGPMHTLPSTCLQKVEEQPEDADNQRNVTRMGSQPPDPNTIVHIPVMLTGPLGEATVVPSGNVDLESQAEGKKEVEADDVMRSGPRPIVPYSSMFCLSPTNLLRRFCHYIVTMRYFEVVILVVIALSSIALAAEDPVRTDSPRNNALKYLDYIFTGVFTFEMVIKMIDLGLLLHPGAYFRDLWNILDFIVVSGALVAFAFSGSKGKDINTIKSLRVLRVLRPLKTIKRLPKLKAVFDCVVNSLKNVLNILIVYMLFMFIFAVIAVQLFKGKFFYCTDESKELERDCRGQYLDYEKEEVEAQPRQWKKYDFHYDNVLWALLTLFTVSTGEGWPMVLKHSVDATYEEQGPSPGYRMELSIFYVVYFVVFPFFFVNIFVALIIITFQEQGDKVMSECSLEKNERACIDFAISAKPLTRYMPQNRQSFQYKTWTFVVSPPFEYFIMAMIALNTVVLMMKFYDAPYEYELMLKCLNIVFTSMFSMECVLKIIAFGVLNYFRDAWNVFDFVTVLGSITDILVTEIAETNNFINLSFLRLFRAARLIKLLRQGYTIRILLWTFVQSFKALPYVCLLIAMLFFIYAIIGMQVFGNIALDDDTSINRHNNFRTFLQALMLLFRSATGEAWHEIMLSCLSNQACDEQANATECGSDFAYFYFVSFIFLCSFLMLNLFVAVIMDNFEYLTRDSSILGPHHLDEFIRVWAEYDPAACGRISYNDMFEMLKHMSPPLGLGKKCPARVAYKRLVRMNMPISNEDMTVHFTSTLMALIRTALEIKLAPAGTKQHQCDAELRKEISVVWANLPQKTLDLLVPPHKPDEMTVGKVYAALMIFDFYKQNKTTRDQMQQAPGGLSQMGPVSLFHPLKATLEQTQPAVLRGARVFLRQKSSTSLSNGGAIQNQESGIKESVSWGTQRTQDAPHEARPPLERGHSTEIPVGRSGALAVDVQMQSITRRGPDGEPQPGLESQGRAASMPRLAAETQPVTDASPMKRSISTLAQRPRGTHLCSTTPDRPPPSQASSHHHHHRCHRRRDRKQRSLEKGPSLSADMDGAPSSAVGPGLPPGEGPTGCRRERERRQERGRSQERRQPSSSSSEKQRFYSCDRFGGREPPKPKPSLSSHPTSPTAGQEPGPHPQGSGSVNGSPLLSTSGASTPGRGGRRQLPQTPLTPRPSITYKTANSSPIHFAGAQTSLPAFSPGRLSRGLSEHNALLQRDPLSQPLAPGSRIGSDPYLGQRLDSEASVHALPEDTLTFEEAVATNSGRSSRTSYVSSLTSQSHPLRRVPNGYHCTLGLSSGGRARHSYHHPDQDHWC
Sequence (P54284 whole entry partner): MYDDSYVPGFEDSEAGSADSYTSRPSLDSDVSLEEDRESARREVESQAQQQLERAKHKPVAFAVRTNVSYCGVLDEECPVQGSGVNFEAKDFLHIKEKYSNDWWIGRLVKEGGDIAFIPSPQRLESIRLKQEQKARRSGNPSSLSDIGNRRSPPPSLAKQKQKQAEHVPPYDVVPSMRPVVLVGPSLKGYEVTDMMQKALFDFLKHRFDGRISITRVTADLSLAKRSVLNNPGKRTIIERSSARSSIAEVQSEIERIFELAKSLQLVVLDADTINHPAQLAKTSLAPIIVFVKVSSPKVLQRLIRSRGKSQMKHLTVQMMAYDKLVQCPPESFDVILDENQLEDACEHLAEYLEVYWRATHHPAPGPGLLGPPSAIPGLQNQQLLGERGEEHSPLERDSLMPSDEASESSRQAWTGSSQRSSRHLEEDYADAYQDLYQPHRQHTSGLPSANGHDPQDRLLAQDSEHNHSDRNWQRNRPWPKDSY
Sequence (P54289 25-946 partner limits assumed): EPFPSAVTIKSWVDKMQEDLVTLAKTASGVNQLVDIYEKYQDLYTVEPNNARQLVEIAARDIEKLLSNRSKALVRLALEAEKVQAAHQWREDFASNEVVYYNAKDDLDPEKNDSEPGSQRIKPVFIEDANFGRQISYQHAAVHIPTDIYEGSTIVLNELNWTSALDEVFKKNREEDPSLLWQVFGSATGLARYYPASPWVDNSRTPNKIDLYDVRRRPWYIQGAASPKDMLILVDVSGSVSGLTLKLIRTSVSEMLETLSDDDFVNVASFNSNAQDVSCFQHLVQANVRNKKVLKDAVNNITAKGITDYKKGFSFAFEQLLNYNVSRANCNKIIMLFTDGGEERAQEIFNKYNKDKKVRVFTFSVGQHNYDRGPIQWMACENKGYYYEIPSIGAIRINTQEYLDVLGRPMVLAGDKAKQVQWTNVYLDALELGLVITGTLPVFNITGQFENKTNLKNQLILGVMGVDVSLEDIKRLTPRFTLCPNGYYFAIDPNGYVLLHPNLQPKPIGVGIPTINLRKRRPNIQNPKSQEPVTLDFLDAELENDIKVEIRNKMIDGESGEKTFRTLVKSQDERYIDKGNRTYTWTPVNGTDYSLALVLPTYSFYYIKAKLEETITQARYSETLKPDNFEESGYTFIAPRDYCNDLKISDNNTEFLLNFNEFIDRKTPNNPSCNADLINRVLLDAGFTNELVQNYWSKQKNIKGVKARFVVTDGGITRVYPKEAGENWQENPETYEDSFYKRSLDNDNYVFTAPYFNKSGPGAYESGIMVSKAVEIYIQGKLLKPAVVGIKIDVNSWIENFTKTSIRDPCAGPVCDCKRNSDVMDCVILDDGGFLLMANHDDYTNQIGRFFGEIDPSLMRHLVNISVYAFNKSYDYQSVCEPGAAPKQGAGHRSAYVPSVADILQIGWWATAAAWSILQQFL
Sequence (P54289 947-1103 partner limits assumed): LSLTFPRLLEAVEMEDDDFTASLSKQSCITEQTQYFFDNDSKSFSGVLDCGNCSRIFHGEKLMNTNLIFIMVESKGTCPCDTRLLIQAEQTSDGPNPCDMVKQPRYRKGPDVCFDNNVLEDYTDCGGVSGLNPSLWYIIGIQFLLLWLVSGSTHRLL
# note: exactly 1000 nM is not below, so it is NO; use YES for IC50 strictly under it

CC(C)C[C@H](NC1CCCCC1)C(=O)N[C@@H](Cc1ccc(OCc2ccccc2)cc1)C(=O)OC(C)(C)C (relative stereo); YES
CC(C)CC(C(=O)NC(Cc1ccc(OCc2ccccc2)cc1)C(=O)NC(C)(C)C)N(C)Cc1ccc(F)cc1 (stereo not shown); YES
CC(C)CC(NC1CCOCC1)C(=O)NC(Cc1ccc(OCc2ccccc2)cc1)C(=O)NC(C)(C)C (stereo not shown); NO
CC(C)CCN(C)[C@@H](CC(C)C)C(=O)N[C@@H](Cc1ccc(OCc2ccccc2)cc1)C(=O)NC1CCN(Cc2ccccc2)C1 (relative stereo); YES

Task item: State whether 1000 nM exceeds IC50 recorded for CC(C)CC(C(=O)NC(Cc1ccc(OCc2ccccc2)cc1)C(=O)NC(C)(C)C)N(C)Cc1ccccc1 (stereo not shown) .
Reply: YES

Task item: State whether 1000 nM exceeds IC50 recorded for CC(C)C[C@H](NC1CCOCC1)C(=O)N[C@@H](Cc1ccc(OCc2ccccc2)cc1)C(=O)N1CCSCC1 (relative stereo) .
Reply: NO

Task item: State whether 1000 nM exceeds IC50 recorded for CC(C)CC(NC1CCOCC1)C(=O)NC(Cc1ccc(OCc2ccccc2)cc1)C(=O)NC(C)(C)CO (stereo not shown) .
Reply: NO
